Data origin: patent US20260062426A1

assay-system: CDK9 (Homo sapiens, UniProt P50750)
Construct: host or cells: HEK293
Sequence (P50750 whole entry): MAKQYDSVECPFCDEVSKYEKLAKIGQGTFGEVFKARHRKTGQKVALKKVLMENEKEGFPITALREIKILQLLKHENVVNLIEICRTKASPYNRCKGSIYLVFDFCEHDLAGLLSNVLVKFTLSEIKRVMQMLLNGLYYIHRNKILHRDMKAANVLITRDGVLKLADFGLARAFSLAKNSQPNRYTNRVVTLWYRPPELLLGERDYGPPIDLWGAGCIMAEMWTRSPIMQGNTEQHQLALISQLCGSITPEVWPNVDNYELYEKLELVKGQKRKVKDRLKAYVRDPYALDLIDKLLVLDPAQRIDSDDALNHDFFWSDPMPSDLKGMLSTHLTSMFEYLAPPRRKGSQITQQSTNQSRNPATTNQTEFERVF
method: CDK9 HIBIT PQ (protein quantification), degradation
Format: cell-based
measurement-context: Max = Maximum
readout-label: Dmax

Quick check: Dmax of CC(C)Oc1c(-c2cn[nH]c2)ncn2nc(Nc3ccc(S(=O)(=O)N(C)CCCN4CCN(c5ccc6c(c5)n(C)c(=O)n6C5CCC(=O)NC5=O)CC4)cc3F)nc12 (stereo not shown) [Compound 66] ?
69%

Please do the same for CC(C)Oc1c(-c2cn[nH]c2)ncn2nc(Nc3ccc(S(=O)(=O)c4cccc(C[C@H]5C[C@H](c6ccc7c(c6)CN([C@H]6CCC(=O)NC6=O)C7=O)C5)c4)cc3F)nc12 (stereo in doubt) [Compound 82] as well.
27%

Please do the same for CC(C)Oc1c(-c2cn[nH]c2)ncn2nc(Nc3ccc(S(=O)(=O)c4cccc(C[C@H]5C[C@@H](c6ccc7c(N8CCC(=O)NC8=O)nn(C)c7c6)C5)c4)cc3F)nc12 [Compound 90] as well.
14%

Please do the same for CC(C)Oc1c(-c2cn[nH]c2)ncn2nc(Nc3ccc(S(=O)(=O)N4CCC(CN5CCC(c6ccc7c(c6)n(C)c(=O)n7C6CCC(=O)NC6=O)CC5)C4)cc3F)nc12 (stereo not shown) [Compound 71] as well.
29%

Please do the same for CC(C)Oc1c(-c2cn[nH]c2)ncn2nc(Nc3ccc(S(=O)(=O)N4CCC5(CCN(CC6CN(c7cccc8c7n(C)c(=O)n8C7CCC(=O)NC7=O)C6)C5)C4)cc3F)nc12 (stereo not shown) [Compound 75] as well.
55%

Please do the same for CC(C)Oc1c(-c2cn[nH]c2)ncn2nc(Nc3ccc(S(=O)(=O)N(C)CCCN4CCC(c5ccc6c(c5)n(C)c(=O)n6C5CCC(=O)NC5=O)CC4)cc3)nc12 (racemic) [Compound 54] as well.
74%

Please do the same for CC(C)Oc1c(-c2cn[nH]c2)ncn2nc(Nc3ccc(S(=O)(=O)c4cccc(N5CCC6C5CN6c5ccc6c(c5)CN(C5CCC(=O)NC5=O)C6=O)c4)cc3F)nc12 (stereo not shown) [Compound 34] as well.
31%

---

assay-system: CCNE1 (Homo sapiens, UniProt P24864+P24941)
Construct: host or cells: HEK293
method: CCNE1 HIBIT PQ (protein quantification), degradation
Format: cell-based
measurement-context: PQ = Protein Quantification
Classes by DC50: Low: < 0.9 nM; Medium: ≥ 0.9 nM and < 7 nM; High: ≥ 7 nM

Record CC(C)Oc1c(-c2cn[nH]c2)ncn2nc(N[C@H]3CCN(S(=O)(=O)N(C)CCCN4CCC(c5cccc6c5n(C)c(=O)n6C5CCC(=O)NC5=O)CC4)C[C@H]3C)nc12 (stereo partly drawn) — which class?
Low

Please do the same for CC(C)Oc1c(-c2cn[nH]c2)ncn2nc(Nc3ccc(S(=O)(=O)c4cccc(CN5CCC(c6ccc7c(N8CCC(=O)NC8=O)nn(C)c7c6)CC5)c4)cc3F)nc12 as well.
High

Please do the same for CC(C)Oc1c(-c2cn[nH]c2)ncn2nc(Nc3ccc(S(=O)(=O)N(C)CCCN4CCC(c5ccc6c(c5)n(C)c(=O)n6C5CCC(=O)NC5=O)CC4)cc3)nc12 (racemic) as well.
Low

Please do the same for CC(C)Oc1c(-c2cn[nH]c2)ncn2nc(Nc3ccc(S(=O)(=O)c4cccc(CN5CC6(C5)CN(c5ccc7c(c5)CN(C5CCC(=O)NC5=O)C7=O)C6)c4)cc3F)nc12 (racemic) as well.
High

Please do the same for CC(C)Oc1c(-c2cn[nH]c2)ncn2nc(Nc3ccc(S(=O)(=O)N4CCCC(CN5CCN(c6ccc7c(N8CCC(=O)NC8=O)nn(C)c7c6)C(C)C5)C4)cc3F)nc12 (stereo not drawn) as well.
High

Please do the same for CC(C)Oc1c(-c2cn[nH]c2)ncn2nc(Nc3ccc(S(=O)(=O)c4cccc(CN5CCN(c6ccc7c(N8CCC(=O)NC8=O)nn(C)c7c6)CC5C(C)C)c4)cc3F)nc12 (single isomer, unassigned) [Compound 106] as well.
High

Please do the same for Cc1c(S(=O)(=O)N(C)CCCN2CCC(c3ccc4c(c3)n(C)c(=O)n4C3CCC(=O)NC3=O)CC2)ccc(Nc2nc3c(OC(C)C)c(-c4cn[nH]c4)ncn3n2)c1F (racemic) as well.
Low

Please do the same for CC(C)Oc1c(-c2cn[nH]c2)ncn2nc(N[C@H]3CCN(S(=O)(=O)c4cccc(CN5CCN(c6ccc7c(N8CCC(=O)NC8=O)nn(C)c7c6)CC5(C)C)c4)C[C@H]3C)nc12 as well.
High

Please do the same for CC(C)Oc1c(-c2cn[nH]c2)ncn2nc(Nc3ccc(S(=O)(=O)c4cccc(CN5CC(c6ccc7c(c6)CN(C6CCC(=O)NC6=O)C7=O)C5)c4)cc3F)nc12 (racemic) as well.
Medium

Please do the same for CC(C)Oc1c(-c2cn[nH]c2)ncn2nc(Nc3ccc(S(=O)(=O)N4CCC[C@H](CN5CC[C@@H](c6ccc7c(N8CCC(=O)NC8=O)nn(C)c7c6)CC5(C)C)C4)cc3F)nc12 (single isomer, unassigned) [Compound 96] as well.
Medium

Please do the same for CC(C)Oc1c(-c2cn[nH]c2)ncn2nc(Nc3ccc(S(=O)(=O)N4CCCC(CN5CCC(c6ccc7c(N8CCC(=O)NC8=O)nn(C)c7c6)CC5)C4)cc3F)nc12 (single isomer, unassigned) [Compound 94] as well.
Medium

Please do the same for CC(C)Oc1c(-c2cn[nH]c2)ncn2nc(Nc3ccc(S(=O)(=O)c4cccc(C[C@H]5C[C@H](c6ccc7c(c6)CN(C6CCC(=O)NC6=O)C7=O)C5)c4)cc3F)nc12 (stereo partly drawn) as well.
High

Please do the same for Cc1cc(Nc2nc3c(OC(C)C)c(-c4cn[nH]c4)ncn3n2)c(F)cc1S(=O)(=O)N(C)CCCN1CCC(c2ccc3c(c2)n(C)c(=O)n3C2CCC(=O)NC2=O)CC1 (racemic) as well.
Low

Please do the same for CC(C)Oc1c(-c2cn[nH]c2)ncn2nc(Nc3ccc(S(=O)(=O)N4CCCC(CN5CCC(c6ccc7c(N8CCC(=O)NC8=O)nn(C)c7c6)CC5)C4)cc3F)nc12 (single isomer, unassigned) [Compound 95] as well.
Medium

Please do the same for CC(C)Oc1c(-c2cn[nH]c2)ncn2nc(Nc3ccc(S(=O)(=O)N(C)CCCN4CCC(c5ccc6c(N7CCC(=O)NC7=O)nn(C)c6c5)CC4)cc3F)nc12 as well.
Low

Please do the same for CC(C)Oc1c(-c2cn[nH]c2)ncn2nc(N[C@H]3CCN(S(=O)(=O)c4cccc(CN5CCC(c6ccc7c(N8CCC(=O)NC8=O)nn(C)c7c6)CC5)c4)C[C@H]3C)nc12 as well.
Medium
